molecular target: MAGI1_2, Q96QZ7; test: holdup assay; design: key: below the threshold = too weak to quantify, mostly under pKd 3.1 to 4; conditions: plain residues with an end cap or a label only (N-terminal biotin on a linker: ado-ado)
Sequence (Q96QZ7 456-580): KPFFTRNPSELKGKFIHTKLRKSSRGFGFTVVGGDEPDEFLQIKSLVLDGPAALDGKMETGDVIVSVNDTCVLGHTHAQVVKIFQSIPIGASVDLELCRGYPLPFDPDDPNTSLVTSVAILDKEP
property_label: pKd

{"binder": "EALLQMESVA [CAVIN3, Q969G5]", "pKd": "below the threshold"}
{"binder": "VKPQVSESKL [ACOT8, O14734]", "pKd": "below the threshold"}
{"binder": "PPYRHRNTVV [ERBB4, Q15303]", "pKd": 4.21}
{"binder": "ETQVTAETVI [TMEM225B, P0DP42]", "pKd": "below the threshold"}
{"binder": "QPCFNKLFPL [LPXN, O60711]", "pKd": "below the threshold"}
{"binder": "QSARLWETSI [ADAM22, Q9P0K1]", "pKd": "below the threshold"}
{"binder": "RKPKPSSSCC [RAB9A, P51151]", "pKd": 3.64}

Please examine the following record next.
GET /values?readout=pKd&item= KKAPTNEFYA [SDC4, P31431]
below the threshold
